SYSTEM TESTED: AR protein (Homo sapiens, UniProt P10275, T878A)
Construct: degradation activity of the compounds disclosed in the present disclosure on AR protein in LNCaP cells; host or cells: LNCaP FGC
Sequence (P10275 1-920 T878A): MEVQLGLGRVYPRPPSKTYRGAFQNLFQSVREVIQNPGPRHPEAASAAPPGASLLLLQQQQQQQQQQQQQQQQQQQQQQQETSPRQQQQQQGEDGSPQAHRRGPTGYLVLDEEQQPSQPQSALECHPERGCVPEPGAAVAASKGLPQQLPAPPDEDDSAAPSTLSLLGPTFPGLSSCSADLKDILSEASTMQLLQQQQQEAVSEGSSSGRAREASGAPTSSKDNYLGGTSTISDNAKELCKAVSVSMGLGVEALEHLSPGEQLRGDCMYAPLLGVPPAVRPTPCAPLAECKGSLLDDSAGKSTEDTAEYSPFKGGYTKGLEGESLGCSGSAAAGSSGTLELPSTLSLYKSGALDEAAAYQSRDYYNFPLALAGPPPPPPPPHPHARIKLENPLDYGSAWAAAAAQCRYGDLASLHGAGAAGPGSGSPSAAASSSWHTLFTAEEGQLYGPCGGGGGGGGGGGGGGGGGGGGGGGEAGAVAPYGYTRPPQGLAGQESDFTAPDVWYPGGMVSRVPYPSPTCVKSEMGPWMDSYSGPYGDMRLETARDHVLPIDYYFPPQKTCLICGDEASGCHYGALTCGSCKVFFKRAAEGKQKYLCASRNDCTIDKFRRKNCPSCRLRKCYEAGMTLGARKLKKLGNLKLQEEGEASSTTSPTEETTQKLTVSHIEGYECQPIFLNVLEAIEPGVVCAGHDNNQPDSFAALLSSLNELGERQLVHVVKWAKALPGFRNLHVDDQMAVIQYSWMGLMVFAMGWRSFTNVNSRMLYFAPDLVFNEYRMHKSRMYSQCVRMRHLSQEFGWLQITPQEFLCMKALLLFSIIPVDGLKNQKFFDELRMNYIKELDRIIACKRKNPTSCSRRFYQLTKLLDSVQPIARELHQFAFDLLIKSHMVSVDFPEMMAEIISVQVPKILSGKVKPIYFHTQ
METHOD NOTES: Degradation of AR protein in LNCaP cells (Western blot)
Type: cell-based
EXPERIMENTAL CONTEXT: LNCaP cells, compound 100 nM, 8 hours, Western blot grayscale, GAPDH internal reference; read-out: Degradation rates of the AR protein in LNCaP cells, 100 nM (%)
MEASUREMENT NAME: inhibition at 0.1 µM (%)
# value in %; strip the unit string

Consider the worked cases shown below.
INSERT INTO results (molecule, reported_result) VALUES
  ('N#Cc1ccc(O[C@H]2CC[C@H](NC(=O)c3ccc(N4CC5(CCc6cc7c(cc6O5)C(=O)N(C5CCC(=O)NC5=O)C7=O)C4)nn3)CC2)cc1Cl (stereo partly shown)', 46),
  ('COc1cc(O[C@H]2C(C)(C)[C@H](NC(=O)c3ccc(N4CCC(C)(CN5CC6(CCc7ccc8c(c7O6)C(=O)N(C6CCC(=O)NC6=O)C8=O)C5)CC4)cc3)C2(C)C)ccc1C#N (stereo partly shown)', 18),
  ('CCOC1(CN2CCC3(CC2)COc2c3ccc3c2C(=O)N(C2CCC(=O)NC2=O)C3=O)CCN(c2ccc(C(=O)N[C@H]3CC[C@H](Oc4ccc(C#N)c(C(F)(F)F)c4)CC3)nn2)CC1 (stereo partly shown)', 11);

# input Can you look up inhibition at 0.1 µM on AR protein (Homo sapiens, UniProt P10275, T878A) for N#Cc1ccc(O[C@H]2CC[C@H](NC(=O)c3ccc(N4CC5(CCC(N6CCC7(CCc8ccc9c(c8O7)CN(C7CCC(=O)NC7=O)C9=O)CC6)CC5)C4)nn3)CC2)cc1Cl (stereo partly shown) ?
# output 19

# input For the record N#Cc1ccc(O[C@H]2CC[C@H](NC(=O)c3ccc(N4CCC5(CC(N6CCC7(CC6)COc6cc8c(cc67)C(=O)N(C6CCC(=O)NC6=O)C8=O)C5)C4)nn3)CC2)cc1Cl (stereo partly shown) , what value of inhibition at 0.1 µM is listed for AR protein (Homo sapiens, UniProt P10275, T878A)?
# output 76

# input Requested read-out inhibition at 0.1 µM, target or system AR protein (Homo sapiens, UniProt P10275, T878A), entry COc1cc(O[C@H]2C(C)(C)[C@H](NC(=O)c3ccc(N4CCC(C)(CN5CCC6(CC5)COc5c(ccc7c5C(=O)N(C5CCC(=O)NC5=O)C7)C6)CC4)cc3)C2(C)C)ccc1C#N (stereo partly shown)
# output 73

# input // map CCC1(CN2CCC3(CC2)COc2c3ccc3c2CN(C2CCC(=O)NC2=O)C3=O)CCN(c2ccc(C(=O)N[C@H]3CC[C@H](Oc4ccc(C#N)c(Cl)c4)CC3)nn2)CC1 (stereo partly shown) to recorded inhibition at 0.1 µM (system: AR protein (Homo sapiens, UniProt P10275, T878A))
# output 60

# input Hello, I am looking for reported inhibition at 0.1 µM with AR protein (Homo sapiens, UniProt P10275, T878A) for N#Cc1ccc(O[C@H]2CC[C@H](NC(=O)c3ccc(N4CC[C@H](CN5CCC6(CC5)COc5cc7c(cc5C6)C(=O)N(C5CCC(=O)NC5=O)C7=O)C4)nn3)CC2)cc1Cl (stereo partly shown) . Could you help?
# output 79

# input Hi! What's the reported inhibition at 0.1 µM for COc1cc(O[C@H]2C(C)(C)[C@H](NC(=O)c3ccc(N4CCC(C)(CN5CCC6(CC5)COc5cc7c(cc5C6)C(=O)N(C5CCC(=O)NC5=O)C7=O)CC4)cc3)C2(C)C)ccc1C#N (stereo partly shown) on AR protein (Homo sapiens, UniProt P10275, T878A)?
# output 63

# input Which inhibition at 0.1 µM is reported with AR protein (Homo sapiens, UniProt P10275, T878A) for this entry: COC1(CN2CC3(CCc4ccc5c(c4O3)C(=O)N(C3CCC(=O)NC3=O)C5)C2)CCN(c2ccc(C(=O)N[C@H]3CC[C@H](Oc4ccc(C#N)c(Cl)c4)CC3)nn2)CC1 (stereo partly shown) ?
# output -1

---

SYSTEM TESTED: AR protein (Homo sapiens, UniProt P10275)
Construct: degradation activity of the compounds disclosed in the present disclosure on AR protein in VCaP cells; host or cells: VCaP
Sequence (P10275 1-920): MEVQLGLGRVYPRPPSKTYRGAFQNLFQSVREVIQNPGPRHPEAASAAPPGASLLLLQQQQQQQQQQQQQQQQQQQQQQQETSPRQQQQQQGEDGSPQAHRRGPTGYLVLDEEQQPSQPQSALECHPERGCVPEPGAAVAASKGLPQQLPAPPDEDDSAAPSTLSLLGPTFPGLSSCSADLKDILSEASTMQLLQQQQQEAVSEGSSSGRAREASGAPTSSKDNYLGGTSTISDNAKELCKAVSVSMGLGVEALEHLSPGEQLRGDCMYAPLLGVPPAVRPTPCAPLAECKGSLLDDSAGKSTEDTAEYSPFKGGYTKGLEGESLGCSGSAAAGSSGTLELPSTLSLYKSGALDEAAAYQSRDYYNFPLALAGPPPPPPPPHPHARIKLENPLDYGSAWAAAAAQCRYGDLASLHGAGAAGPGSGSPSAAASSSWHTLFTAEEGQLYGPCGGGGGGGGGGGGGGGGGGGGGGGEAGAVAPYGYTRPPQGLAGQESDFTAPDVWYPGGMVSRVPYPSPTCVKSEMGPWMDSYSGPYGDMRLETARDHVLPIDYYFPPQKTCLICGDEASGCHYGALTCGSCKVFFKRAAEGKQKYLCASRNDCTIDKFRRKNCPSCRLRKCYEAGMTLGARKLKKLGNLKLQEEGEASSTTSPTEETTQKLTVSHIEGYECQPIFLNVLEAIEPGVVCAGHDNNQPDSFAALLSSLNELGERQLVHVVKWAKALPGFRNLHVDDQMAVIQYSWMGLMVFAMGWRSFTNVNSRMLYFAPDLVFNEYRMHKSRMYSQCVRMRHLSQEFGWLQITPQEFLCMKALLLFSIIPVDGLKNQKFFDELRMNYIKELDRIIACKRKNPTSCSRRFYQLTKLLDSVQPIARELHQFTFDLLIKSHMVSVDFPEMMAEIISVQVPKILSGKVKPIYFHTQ
METHOD NOTES: Degradation of AR protein in VCaP cells (Western blot)
Format: cell-based
EXPERIMENTAL CONTEXT: compound at 100 nM, 8 hours, read-out: Degradation rate of the AR protein in VCaP cells, 100 nM (%)
MEASUREMENT NAME: inhibition at 0.1 µM (%)
State just the number; it will be interpreted in %.

INSERT INTO results (molecule, measurement_name, reported_result) VALUES
  ('N#Cc1ccc(O[C@H]2CC[C@H](NC(=O)c3ccc(N4CCC(CO)(CN5CCC6(CC5)COc5c6ccc6c5CN(C5CCC(=O)NC5=O)C6=O)CC4)nn3)CC2)cc1Cl (stereo partly drawn) [Compound 257]', 'inhibition at 0.1 µM', 75),
  ('COc1cc(O[C@H]2C(C)(C)[C@H](NC(=O)c3ccc(N4CCC(C#N)(CN5CCC6(CC5)COc5c6ccc6c5CN(C5CCC(=O)NC5=O)C6=O)CC4)cc3)C2(C)C)ccc1C#N (stereo partly drawn) [Compound 208]', 'inhibition at 0.1 µM', 67);

Now for the molecule whose inhibition at 0.1 µM we want.
# input Using the record for N#Cc1ccc(O[C@H]2CC[C@H](NC(=O)c3ccc(N4CCC(C#N)(CN5CCC6(CC5)COc5c6ccc6c5C(=O)N(C5CCC(=O)NC5=O)C6=O)CC4)nn3)CC2)cc1C(F)(F)F (stereo partly drawn) [Compound 228] , report its inhibition at 0.1 µM.
# output 18
